target: T1, Recombinant XIAP-BIR3 (residues 238-358) (UniProt P98170 238-358); assay: fluorescence competition, displacement of AVPC-badan from BIR3
T1 construct: also called BIR3 domain of XIAP; BIR3 protein
T1 sequence (P98170 238-358 limits assumed): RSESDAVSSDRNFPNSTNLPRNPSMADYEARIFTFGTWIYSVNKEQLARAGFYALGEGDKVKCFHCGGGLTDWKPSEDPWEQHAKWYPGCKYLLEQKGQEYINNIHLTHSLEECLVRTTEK
pKd: −log10 of the molar value.
property_name: pKd

{"binder": "AKPI (Synthetic tetrapeptide)", "pKd": 6.24}
{"binder": "AFPI (Synthetic tetrapeptide)", "pKd": 6.10}
{"binder": "AYPI (Synthetic tetrapeptide)", "pKd": 6.23}
{"binder": "AMPI (Synthetic tetrapeptide)", "pKd": 6.14}

I = AIPI (Synthetic tetrapeptide)
II = AQPI (Synthetic tetrapeptide)
Of I and II , which carries the smaller reported pKd figure? To answer, give the label that identifies your chosen option.
II
(II: 6.03, I: 6.41)

P = ALPI (Synthetic tetrapeptide)
Q = ACPI (Synthetic tetrapeptide)
Between the entries labelled P and Q , which has a larger pKd value on record? # answer = label of selected item
P
